These measurements were taken from PubChem BioAssay.

Give z-score for every item shown.
Run description: E. coli DRC41 culture turbidity changes, primary screen, E. coli filamentation inducer project, strain DRC41, OD650, 48 h (AID 1152);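 note: E. coli MC1000 strain DRC41 lacking acrAB efflux pump and sulA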
Assay context: E. coli DRC41 (acrAB sulA), higher = more signal, called active from +8 up or from −8 down
Answers are plain numbers.

Consider the following illustrative entries.
{"Compound": "COCCOC(=O)N1C(=O)[C@@]2(c3cc(C#CCC(C(=O)OC)C(=O)OC)ccc31)[C@H](c1ccc(OCCO)cc1)N1[C@H](c3ccccc3)[C@H](c3ccccc3)OC(=O)[C@H]1[C@@H]2C(=O)N1CCCCCCC1", "Measured property": "z-score", "Recorded measurement": 0.759}
{"Compound": "CC(C)C[C@@H]1NC(=O)[C@H]2C[C@@H](C(=O)NCCCCCNC(=O)CS)[C@@H](c3ccc(O)cc3)N2C1=O", "Measured property": "z-score", "Recorded measurement": 0.213}

[in] Can you look up the measured z-score of COc1ccc(C(O)C2C=CC3C(=O)N(C)C(=O)C3N2Nc2ccc([N+](=O)[O-])cc2[N+](=O)[O-])cc1OCc1ccccc1 (stereo not drawn) for me?
[out] -1.07

----------
Assayed target: Torsin-1A-interacting protein 2 (Homo sapiens)
Run description: LULL1 binders on small-molecule microarray, primary screen, cell lysate, human LULL1 lysate, 635/667 nm fluorescence (AID 1092);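 note: probe is lysate of COS7 cells overexpressing human LULL1; score merges per-feature 667 nm fluorescence with signal-to-noise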
Assay context: hLULL1 lysate binding, 635 nm fluorescence, higher = more signal
Measured property: composite z-score
One number for each entry.

{"Compound": "C=CCC(OC(C)=O)[C@@H]1[C@@H](N(Cc2cc3ccccc3o2)C(=O)Cc2ccc(OC)cc2)c2cc(OCCCO)ccc2N1C(=O)Cc1ccc(OC)cc1 (stereo partly specified)", "composite z-score": 0.0103}

Report composite z-score for each item below.
1. NC(=O)[C@@]1(CCS(=O)(=O)c2ccccc2)COC(c2ccc(OCCCO)cc2)=N1
2. COCC(=C=CC[C@@H](O)c1cccc(OCCO)c1)C[C@@H](O)COCc1ccccc1

[out]
[1.28, 3.81]

Please state, for each entry, its recorded composite z-score.
1. C=CC[C@@]1(C(=O)N(C)C)N=C(c2ccc(OCCCO)cc2)O[C@@H]1c1ccccc1
2. N#Cc1ccc(C(O)C2C=CC3C(=O)NC(=O)C3N2Nc2ccccn2)cc1 (stereo unspecified)
3. COC(=O)C1=CC(CCCO)=CC(C2CC2)N(Cc2cccc(OC(F)(F)F)c2)C=C1C(=O)OC (stereo unspecified)
4. COCCOC(=O)N1C(=O)[C@@]2(c3cc(C#Cc4ccc(OC)cc4)ccc31)[C@H](c1ccc(OCCO)cc1)N1[C@H](c3ccccc3)[C@H](c3ccccc3)OC(=O)[C@H]1[C@@H]2C(=O)N1CCCCCCC1

[out]
1. 3.5
2. 1.4
3. 2.82
4. 3.3

For each listed entry, give its composite z-score.
1. COCCOC(=O)N1C(=O)[C@@]2(c3cc(C#Cc4ccc(OC)cc4)ccc31)[C@H](C(=O)Nc1nc3ccccc3s1)[C@H]1C(=O)O[C@H](c3ccccc3)[C@H](c3ccccc3)N1[C@@H]2c1ccccc1OCCO
2. C=C(CCCC)C(=O)CC[C@H](OC(=O)c1cccnc1)c1ccc(CO)o1
3. COc1cc2c(cc1O)C(c1ccc(CN3CCCC3)cc1)N(Cc1ccc([N+](=O)[O-])o1)CC2 (stereo unspecified)
4. CO[C@H]1O[C@H](CO)[C@@H](OC(=O)Nc2ccc(C(F)(F)F)cc2)[C@H](OC(=O)Nc2ccccc2-c2ccccc2)[C@@H]1OC(=O)Nc1ccccc1-c1ccccc1
5. COC(=O)Cn1c(C(=O)N(C)C)cc2c1C[C@H]1CN(C(=O)c3ccccc3)[C@@](Cc3ccc(OC)cc3)(C(=O)OC)[C@@H]21
6. COc1ccc(C(O)C2C=CC3C(=O)N(C)C(=O)C3N2Nc2ccc([N+](=O)[O-])cc2[N+](=O)[O-])cc1OCc1ccccc1 (stereo unspecified)
7. COCCCN1C(=O)[C@@]2(Cc3ccccc31)c1ccccc1C(=O)N(Cc1ccccc1OC)[C@H]2c1ccc(CO)cc1

[out]
[1.55, 2.07, 1.65, 2.4, 3.7, 2.96, 1.04]

Batch of 2 compounds: report composite z-score for each.
1. CC(=O)n1cc(C(O)C2C=CC3C(=O)N(c4ccccc4)C(=O)C3N2Nc2ccccc2F)c2ccccc21 (stereo unspecified)
2. CC=CC(O)C1C=CC2C(=O)N(C)C(=O)C2N1NC(=O)OC(C)(C)C (stereo unspecified)

[out]
1: 2.51; 2: 0.522
